This listing pairs binders with measured Emax (MFI).
SYSTEM: T1, cell surface human mesothelin (MSLN) (human, UniProt Q13421 296-598)
T1 construct: whole, on cells; also called cell surface MSLN
T1 sequence (Q13421 other isoform, or with tags, fused parts or gaps limits assumed): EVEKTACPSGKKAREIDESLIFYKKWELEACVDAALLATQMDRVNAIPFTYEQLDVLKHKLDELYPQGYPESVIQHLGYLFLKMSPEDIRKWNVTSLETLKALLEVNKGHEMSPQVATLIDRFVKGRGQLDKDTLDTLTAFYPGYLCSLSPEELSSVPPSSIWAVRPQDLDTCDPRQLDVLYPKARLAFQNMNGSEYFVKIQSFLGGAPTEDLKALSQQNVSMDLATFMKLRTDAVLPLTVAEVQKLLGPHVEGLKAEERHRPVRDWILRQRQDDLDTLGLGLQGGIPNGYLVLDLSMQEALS
ASSAY_PROCEDURE: flow cytometry, NCI-H226 cells
Return type: number; implicit unit MFI.

# example entries with known answers
Request: Supply Emax (MFI) value. Item: FS22-053-008-AA/FS28-024-052 mAb^2 (bispecific antibody, human IgG1, kappa, L234A L235A, V domains shown, also called FS28-024-52) VH: EVQLLESGGGLVQPGGSLRLSCAASGFTLSYSSMSWVRQAPGKGLEWVSFITPSTGYTHYADSVKGRFTISRDNSKNTLYLQMNSLRAEDTAVYYCARRALLFDYWGQGTLVTVSS VL: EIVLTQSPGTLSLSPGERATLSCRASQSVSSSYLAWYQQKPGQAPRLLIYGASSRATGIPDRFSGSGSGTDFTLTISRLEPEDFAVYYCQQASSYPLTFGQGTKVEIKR
Result: 958000

Request: Please report Emax (MFI) for the following binder: FS22-053-008-AA/FS28-256-026 mAb^2 (bispecific antibody, human IgG1, kappa, L234A L235A, V domains shown) VH: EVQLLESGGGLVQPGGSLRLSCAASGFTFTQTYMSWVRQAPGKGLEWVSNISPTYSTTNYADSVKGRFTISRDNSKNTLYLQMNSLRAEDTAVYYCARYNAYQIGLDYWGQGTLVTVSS VL: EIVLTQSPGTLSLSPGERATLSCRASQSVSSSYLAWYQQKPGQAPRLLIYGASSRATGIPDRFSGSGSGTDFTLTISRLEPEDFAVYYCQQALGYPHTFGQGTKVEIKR
Result: 741000

Request: Check the records and state Emax (MFI) for FS22-053-008-AA/FS28-024-051 mAb^2 (bispecific antibody, human IgG1, kappa, L234A L235A, V domains shown, also called FS28-024-51) VH: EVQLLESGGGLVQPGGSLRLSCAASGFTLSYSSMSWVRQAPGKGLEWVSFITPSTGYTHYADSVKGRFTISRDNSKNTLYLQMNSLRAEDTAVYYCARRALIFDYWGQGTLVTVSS VL: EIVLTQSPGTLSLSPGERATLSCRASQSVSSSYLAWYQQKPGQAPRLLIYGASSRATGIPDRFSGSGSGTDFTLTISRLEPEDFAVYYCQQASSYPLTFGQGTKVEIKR
Result: 801000

Proceeding to the next binder to report its Emax (MFI).
Request: Please give measured Emax (MFI) of the following entry: FS22-053-008-AA/FS28-256 (bispecific antibody, human IgG1, kappa, L234A L235A, V domains shown) VH: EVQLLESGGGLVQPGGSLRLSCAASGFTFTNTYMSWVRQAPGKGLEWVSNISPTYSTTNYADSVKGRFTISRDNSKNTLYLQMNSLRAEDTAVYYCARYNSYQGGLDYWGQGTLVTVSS VL: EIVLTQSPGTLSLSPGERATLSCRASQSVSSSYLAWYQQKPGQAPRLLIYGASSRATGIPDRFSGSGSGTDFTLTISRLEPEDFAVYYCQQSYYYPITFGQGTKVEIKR
Result: 276000
